# ASSAYED_SYSTEM: human CYP11B1 (Homo sapiens, UniProt P15538)
# Sequence (P15538 25-503): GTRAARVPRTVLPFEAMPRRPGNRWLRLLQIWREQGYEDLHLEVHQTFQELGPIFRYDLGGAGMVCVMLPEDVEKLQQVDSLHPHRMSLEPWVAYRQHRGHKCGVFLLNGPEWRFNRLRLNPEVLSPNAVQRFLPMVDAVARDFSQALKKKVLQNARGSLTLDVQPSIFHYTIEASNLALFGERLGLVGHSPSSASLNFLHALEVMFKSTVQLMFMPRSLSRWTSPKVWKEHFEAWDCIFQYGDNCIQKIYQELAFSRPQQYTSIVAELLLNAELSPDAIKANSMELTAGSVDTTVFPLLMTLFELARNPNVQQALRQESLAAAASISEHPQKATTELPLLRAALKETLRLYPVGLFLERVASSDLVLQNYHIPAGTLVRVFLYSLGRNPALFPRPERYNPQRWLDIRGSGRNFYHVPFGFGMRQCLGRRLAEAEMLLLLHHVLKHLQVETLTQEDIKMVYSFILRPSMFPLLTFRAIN
# METHOD_SUMMARY: G-402 cellular enzyme assay, human CYP11B1 (cortisol release, HTRF)
# STATED_CONDITIONS: G-402 cells, 1 μM Deoxycortisol
Assign pEC50 to each entry below.
Hey, just a heads up that pEC50 is the negative log base 10 of the concentration in molar.

Q: Which pEC50 reading was recorded for the compound O=C1c2ccc(Cl)cc2CCN1c1cncc(-c2cccc(C(F)(F)F)c2)c1 ?
A: 5.36

Q: Which pEC50 value is on record for Cc1ccc(C(=O)NCc2cncc(N3C(=O)c4ccc(Cl)cc4C3(C)C)c2)cn1 ?
A: 6.80

Q: Given the entry CC(Nc1ncco1)c1cncc(N2CCc3cc(Cl)ccc3C2=O)c1 (centres unmarked) , report its measured pEC50.
A: 6.68

Q: pEC50 lookup needed for O=C1c2ccc(Cl)cc2CCN1c1cncc(C(O)c2cc(F)cc(F)c2)c1 (centres unmarked) , thanks.
A: 6.29

Q: Can you look up the measured pEC50 of CCC(=O)NC1CCCc2c1cncc2N1Cc2cc(Cl)ccc2C1=O (single isomer, unassigned) for me?
A: 5.28

Q: Can you look up the measured pEC50 of CC(O)(c1ccccc1)c1cncc(N2CCc3cc(Cl)ccc3C2=O)c1 (centres unmarked) for me?
A: 6.84

Q: Looking for the measured pEC50 of Cc1ccncc1C(=O)NCc1cncc(N2C(=O)c3ccc(Cl)cc3C2(C)C)c1 , can you help?
A: 5.90

Q: Please report the recorded pEC50 for O=C1c2ccc(Cl)cc2CCN1c1cncc(CNC2COC2)c1 .
A: 6.06

###

# ASSAYED_SYSTEM: human CYP11B2 (Homo sapiens, UniProt P19099)
# Sequence (P19099 25-503): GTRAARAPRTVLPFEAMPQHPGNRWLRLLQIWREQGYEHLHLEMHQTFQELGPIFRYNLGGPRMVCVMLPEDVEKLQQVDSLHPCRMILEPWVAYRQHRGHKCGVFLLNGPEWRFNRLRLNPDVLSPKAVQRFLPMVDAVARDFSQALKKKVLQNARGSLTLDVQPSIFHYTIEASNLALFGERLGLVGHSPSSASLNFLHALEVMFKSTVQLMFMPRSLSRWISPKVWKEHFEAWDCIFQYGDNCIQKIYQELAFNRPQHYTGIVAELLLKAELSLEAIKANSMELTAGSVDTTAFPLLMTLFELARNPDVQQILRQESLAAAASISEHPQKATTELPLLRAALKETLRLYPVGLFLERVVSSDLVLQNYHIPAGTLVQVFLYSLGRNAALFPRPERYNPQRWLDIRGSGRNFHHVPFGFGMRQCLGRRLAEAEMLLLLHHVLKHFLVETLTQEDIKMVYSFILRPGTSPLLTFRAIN
# METHOD_SUMMARY: G-402 cellular enzyme assay, human CYP11B2 (aldosterone release, HTRF)
# STATED_CONDITIONS: G-402 cells, 1 μM Deoxycorticosterone
pEC50: −log10 of the molar value.
Would you please tag the item label 1 when its pEC50 is 7 or above, and label 0 when it is below?

Q: Please indicate if the recorded pEC50 for CCC(=O)N[C@@H]1CCc2c1cncc2N1C(=O)c2ccc(Cl)cc2[C@@H]1C (single isomer, unassigned) [Example 375] meets or exceeds 7.
A: label 0

Q: Dear colleague, could you confirm whether O=c1c2ccc(Cl)cc2ccn1-c1cncc(F)c1 [Example 54] has pEC50 at or above 7?
A: label 0

Q: Could you tell me if the measured pEC50 of CC1(C)c2cc(Cl)ccc2C(=O)N1c1cncc(OC2CCN(S(C)(=O)=O)C2)c1 (stereo not drawn) [Example 445] reaches 7 or more?
A: label 1

Q: Reported pEC50 reaches at least 7 for CC(c1cncc(N2CCc3cc(Cl)ccc3C2=O)c1)n1nccn1 (stereo not drawn) [Example 269] ?
A: label 1

Q: Confirm if pEC50 reported for the compound CC1(C)c2cc(Cl)ccc2C(=O)N1c1cncc(OC2CN(S(C)(=O)=O)C2)c1 [Example 452] is 7 or above.
A: label 1

Q: pEC50 >= 7 for O=C1CCCCN1Cc1cncc(N2CCc3cc(Cl)ccc3C2=O)c1 [Example 173] ?
A: label 0

###

# ASSAYED_SYSTEM: human CYP11B1 (Homo sapiens)
# METHOD_SUMMARY: G-402 cellular enzyme assay, human CYP11B1 (cortisol release, HTRF)
# STATED_CONDITIONS: G-402 cells, 1 μM Deoxycortisol
pEC50: −log10 of the molar value.
Kindly return Yes if reported pEC50 is no lower than 6; return No if it is lower.

Q: Hello, I need to know if O=C1c2ccc(Cl)cc2CCN1c1cncc(-c2cccc(F)c2)c1 has measured pEC50 not below 6. Thanks!
A: Yes

Q: Could you tell me if the measured pEC50 of CCS(=O)(=O)NCc1cncc(N2C(=O)c3ccc(Cl)cc3C2(C)C)c1 reaches 6 or more?
A: No

Q: Reported pEC50 reaches at least 6 for O=C1c2ccc(Cl)cc2CCN1c1cncc(Cn2nccn2)c1 ?
A: Yes

Q: // inclusive: pEC50 at least 6? input: O=C1c2ccc(Cl)cc2CN1c1cncc(N2CCC[C@H]2CO)c1
A: No

Q: // inclusive: pEC50 at least 6? input: CCc1ccc(C(O)c2cncc(N3CCc4cc(Cl)ccc4C3=O)c2)cc1 (stereo not shown)
A: Yes

Q: Please check the record CC1(C)c2nc(Cl)ccc2C(=O)N1c1cncc(OC(F)F)c1 and state if its pEC50 is at or above 6.
A: Yes

Q: Given CC1(C)c2cc(Cl)ccc2C(=O)N1c1cncc(CNC(=O)c2cccnc2)c1 , state whether its pEC50 is at least 6.
A: Yes

Q: Answer whether pEC50 of COc1cncc(N2CCc3nc(Cl)ccc3C2=O)c1 is greater than or equal to 6.
A: Yes

Q: Can O=C(Nc1cncc(N2CCc3cc(Cl)ccc3C2=O)c1)NC1CCCCC1 be said to have pEC50 at or above 6?
A: No

Q: Does the reported pEC50 for CC1c2cc(Cl)ccc2C(=O)N1c1cncc(F)c1 (stereo not shown) fall at or above the 6 mark?
A: No

Q: Is pEC50 at least 6? Consider CN1CCN(Cc2cncc(N3CCc4cc(Cl)ccc4C3=O)c2)CC1
A: Yes

Q: Could you verify whether the entry O=C1c2ccc(Cl)cc2CCN1c1cncc(CNc2ccccc2)c1 shows pEC50 of no less than 6?
A: Yes

Q: Quick check, pEC50 >= 6? CCC1c2cc(Cl)ccc2C(=O)N1c1cncc(OC)c1 (stereo not shown)
A: Yes

Q: Determine whether this compound has pEC50 no lower than 6: O=C1c2ccc(Cl)cc2CCN1c1cncc(Cc2ccc(N3CCOCC3)nc2)c1
A: Yes

Q: Check if pEC50 >= 6 (inclusive). Item: O=C1c2ccc(Cl)cc2CCN1c1cncc(N2CCOCC2)c1
A: Yes

Q: Is it the case that O=C(Nc1ccccc1)c1cncc(N2CCc3cc(Cl)ccc3C2=O)c1 has pEC50 reaching or exceeding 6?
A: No

Q: Identify whether the reported pEC50 of the following compound is 6 or greater: Cc1cn[nH]c1-c1cncc(N2CCc3cc(Cl)ccc3C2=O)c1
A: Yes

Q: Does the reported pEC50 for CCS(=O)(=O)NCc1cncc(N2C(=O)c3ccc(F)cc3C23CC3)c1 fall at or above the 6 mark?
A: No

Q: Does pEC50 meet or surpass 6 for CCOc1ccc2c(n1)C(C)(C)N(c1cncc(F)c1)C2=O ?
A: No

###

# ASSAYED_SYSTEM: UniProt:P15538
# METHOD_SUMMARY: G-402 cellular enzyme assay, human CYP11B1 (cortisol release, HTRF)
# STATED_CONDITIONS: G-402 cells, 1 μM Deoxycortisol
Quick rule for you: EC50 under 0.3 µM gets 1 (yes), anything else gets 0 (no).

Q: # check: EC50 < 0.3 µM for CCC1c2ccc(Cl)cc2C(=O)N1c1cncc(CNS(C)(=O)=O)c1 (single isomer, unassigned) [Example 405]
A: 0 (no)

Q: Identify whether the molecule CC1(C)c2nc(Cl)ccc2C(=O)N1c1cncc(CNc2cc[nH]n2)c1 records EC50 below 0.3 µM.
A: 0 (no)

Q: Threshold test, EC50 < 0.3 µM: Cc1ncccc1C(=O)NCc1cncc(N2C(=O)c3ccc(Cl)cc3C2(C)C)c1
A: 0 (no)

Q: Quick check: EC50 of CC[C@@H]1c2cc(Cl)ccc2C(=O)N1c1cncc2c1CCC[C@H]2NC(C)=O (single isomer, unassigned) under 0.3 µM?
A: 0 (no)

Q: Identify whether the molecule COC(C)(C)c1cncc(N2CCc3cc(Cl)ccc3C2=O)c1 records EC50 below 0.3 µM.
A: 1 (yes)

Q: Does CC1(COCc2cncc(N3CCc4cc(Cl)ccc4C3=O)c2)CC1 have EC50 strictly under 0.3 µM?
A: 0 (no)

Q: Consider the molecule O=C1c2ccc(Cl)cc2CCN1c1cncc(Cn2ccnc2Cl)c1 . Is its EC50 strictly less than 0.3 µM?
A: 1 (yes)

Q: Does the reported EC50 of Cn1cc(-c2cncc(N3CCc4cc(Cl)ccc4C3=O)c2)cn1 stay below 0.3 µM?
A: 1 (yes)

Reference for the values: patent US9133158B2
